Taken from PubChem BioAssay (NCI).

Listed here are compounds together with their documented TGI.
Test system: HCT-116 colon
Test: NCI tumour cell line growth inhibition, 48 h
Recorded Metric: TGI (µM)

Compound | Tested System | Recorded Metric | Inequality Sign | Recorded Value
CCOC(=O)C1=C(C)N(Cc2ccccc2)C2(O)C=CC(=O)C3=C(O)c4ccccc4C(=O)C312 (centres undefined) | HCT-116 colon | TGI | = | 21.8
CCCCC[C@H]1CCCCCCCCCC(=O)OC2C(O[C@@H]3OC(C)[C@H](OC(=O)[C@@H](C)CC)C(O[C@@H]4OC(C)[C@H](O)C(O)[C@@H]4O)[C@@H]3OC(=O)[C@H](C)CC)[C@H](OC3C(O)[C@@H](O)C(C)O[C@H]3O1)OC(CO)[C@H]2O (some centres undefined) | HCT-116 colon | TGI | = | 29.7
COc1cccc(NC2=C(Cl)C(=O)N(Cc3ccc(Cl)cc3)C2=O)c1 | HCT-116 colon | TGI | = | 13.5
Cn1cc(C2=C(c3cn(CCCCC(=N)N)c4ccccc34)C(=O)NC2=O)c2ccccc21 | HCT-116 colon | TGI | > | 25
NC(=O)Oc1ccccc1 | HCT-116 colon | TGI | > | 100
c1ccc(-c2nnc3nn4c(-c5ccccc5)cnnc4c3c2-c2ccccc2)cc1 | HCT-116 colon | TGI | > | 100
O=CCCCC(Sc1ccccc1)Sc1ccccc1 | HCT-116 colon | TGI | = | 28.4
C(=C/c1nc2ccccc2o1)/c1ccc2c(c1)OCO2 | HCT-116 colon | TGI | = | 33.3
O=S(=O)(O)c1cc(S(=O)(=O)O)c2c(N=Nc3ccc(N=Nc4ccccc4)cc3)c(O)ccc2c1 | HCT-116 colon | TGI | > | 100
